Test system: NCI-H522 lung
ASSAY_METHOD_TEXT: NCI-60 one-dose screen, 48 h
EXPERIMENTAL_PARAMETERS: 10 µM unless noted
Compounds without any hit were thinned out: in the full panel of roughly 83,000, 20% have a hit. The source made the active and inactive calls. Rule for the calls: active = growth percent below 10; inactive = the rest.
# output must be one of active, inactive

INSERT INTO measurements (molecule, label_class) VALUES
  ('COc1cc(/C(C#N)=C/c2nc3c(N4CCOCC4)nc(Cl)nc3n2C)cc(OC)c1OC', 'inactive'),
  ('CC1=C(C(=O)OCC2CCN(C(=O)OC(C)(C)C)CC2)[C@H](c2cccc(C#N)c2)C2=C(CC(C)(C)CC2=O)N1', 'active'),
  ('C#CCn1cc(C=C2C(=O)NC(=O)NC2=O)c2cc(Cl)ccc21', 'inactive'),
  ('Nc1ccn(C2O[C@H](CO)[C@@H](O)[C@H]2O)c(=O)n1 (stereo partly specified)', 'inactive'),
  ('CN(C)/C=C1\SC(=Nc2ccc(Cl)cc2)NC1=O', 'inactive');

Query: // return assay outcome for CN1CCN(Cc2ccc(NC(=O)c3cncc(C#Cc4nc(N)nc5[nH]ncc45)c3)cc2C(F)(F)F)CC1
Reply: active

Query: What call does the record list for O=c1c2cc(F)ccc2sc2c(NCCN3CCCC3)nc3ccccc3c12 ?
Reply: inactive

Query: For O=C(N=Nc1c(O)[nH]c2ccccc12)c1oc2ccccc2c1CN1CCN(c2ccccc2)CC1 , what call appears in the results of this test?
Reply: inactive

Query: Fill in: this test's call for Cc1ccc(C)c(-c2csc(Nc3ccc(C)c(C)c3)n2)c1 is ___
Reply: inactive

Query: How was Cn1nc(C(F)(F)F)c(-c2ccc(Cl)c(C(F)(F)F)c2)c1-c1ccc(OCc2ccc(Cl)cc2)cc1O classified in this test?
Reply: active

Query: Could you kindly confirm the outcome this assay logged for CCOC(=O)C(CC(=O)O)=C(C(=O)OCC)C(=O)OCC ?
Reply: inactive

----------
Tested on: A549/ATCC NSCLC
ASSAY_METHOD_TEXT: NCI-60 one-dose screen, 48 h (100 = growth as untreated, 0 = no growth, -100 = all killed)
EXPERIMENTAL_PARAMETERS: 10 µM unless noted
Compounds without any hit were thinned out: in the full panel of roughly 83,000, 20% have a hit.
MEASUREMENT_KIND: growth (%)
Report as a plain number; the unit % is understood.

Check out these entries, answers already filled in.
INSERT INTO assay_data (compound, measurement_kind, units_of_measure, measured_value) VALUES
  ('O=C(CCc1nnc2sc(Cc3ccccc3Cl)nn12)c1nc2ncccc2[nH]1', 'growth', '%', 104),
  ('CCCCCCn1c(=N)n(CC(O)COc2cccc(C)c2)c2ccccc21 (stereo not given)', 'growth', '%', -32.3),
  ('Cc1cc(OC(=O)c2ccc([N+](=O)[O-])cc2)nc2[nH]c(=O)sc12', 'growth', '%', 103),
  ('COC(=O)c1ccc(NC(=O)CSc2nc3ccccc3c(=O)n2-c2ccccc2)cc1', 'growth', '%', 88.8),
  ('COc1cc2cc3c(=O)n4c(cc5cc(OC)ncc54)c(=O)n3c2cn1', 'growth', '%', 102),
  ('COc1ccc(C2=C(c3cccc(OC)c3)C(=O)c3ccc(C)nc3C2=O)cc1', 'growth', '%', 40.8);

Query: Which measured growth value corresponds to Cc1nc2ccccc2c(/C=C/c2ccc(F)cc2)c1C(N)=O ?
Reply: 97.7

Query: // lookup growth for CN(O)c1nc(N(C)O)nc(N2CCOCC2)n1
Reply: 33

Query: # get_value(readout='growth', item= O=Nc1c(O)ccc2ccccc12.O=Nc1c(O)ccc2ccccc12.O=Nc1c([O-])ccc2ccccc12.[Fe+3] )
Reply: 106

Query: Data request, read-out growth, for Nc1nc(-c2cnccn2)nn1-c1nc2ccccc2s1
Reply: 92.7

----------
System: RPMI-8226 leukemia
ASSAY_METHOD_TEXT: NCI-60 one-dose screen, 48 h (100 = growth as untreated, 0 = no growth, -100 = all killed)
EXPERIMENTAL_PARAMETERS: 10 µM unless noted
About 83,000 compounds went through this panel and 20% of them were active in at least one assay; those are over-represented in the sample as a whole.
MEASUREMENT_KIND: growth (%)
Kindly provide the numeric value in % only, without the unit symbol.

Consider the following illustrative entries.
INSERT INTO results (compound, measured_value) VALUES
  ('O=C(CN1C(=O)/C(=C\c2ccc(Cl)cc2)SC1=S)Nc1ncc(Cc2ccc(Cl)cc2)s1', 102),
  ('CCCCNc1nc(NC(C)(C)C)nc(NC(C)(C)C)n1', 17.7);

Query: If you can, please state the reported growth value of O=C(/C=C/c1ccc(C(F)(F)F)cc1)c1ccc(Nc2nc(NCCO)nc(N3CCOCC3)n2)cc1 .
Reply: 2.35

Query: Requested field: growth. Item: Cc1nn(-c2nc3ccccc3[nH]2)c2c1C(c1ccc(OCC(N)=O)cc1)CC(=O)N2 (centres undefined)
Reply: 126

Query: For the compound shown here, Cn1c(/C=C(\C#N)c2cccc(C(F)(F)F)c2)nc2c(N3CCOCC3)nc(Cl)nc21 , give the reported growth.
Reply: -23.4

Query: Requested field: growth. Item: COc1ccccc1N1C(=N)S/C(=C\c2ccc(OCc3ccccc3F)cc2)C1=O
Reply: 70.1

Query: Which growth value is on record for COC(=O)/C(CCC=C(C)C)=C1\[C@@H](OC(C)=O)C[C@@]2(C)[C@H]1C[C@@H](O)[C@H]1[C@@]3(C)CC[C@H](NCc4ccccc4)[C@@H](C)[C@@H]3CC[C@@]12C ?
Reply: 16.9

Query: Request the reported growth associated with O=C1C(=O)c2c(ccc3ccccc23)-c2ccccc21
Reply: 4.32

----------
Tested on: OVCAR-5 ovarian
ASSAY_METHOD_TEXT: NCI-60 one-dose screen, 48 h
EXPERIMENTAL_PARAMETERS: 10 µM unless noted
This is part of a sample that, as a whole, favours compounds with a hit. Of some 83,000 tested, about 20% had one in any assay. Active and inactive are the calls of the source. The calls were made as follows: active = growth percent below 10; inactive = the rest.
Returns: one label drawn from label 1 for active, label 0 for inactive

INSERT INTO measurements (compound, assay_system, label_class) VALUES
  ('O=c1c2cc(F)ccc2sc2c(Nc3ccncc3)nc3ccccc3c12', 'OVCAR-5 ovarian', 'label 1'),
  ('O=c1c(-c2nc3ccccc3[nH]2)cc2ccccc2n1Cc1cn(Cc2ccc(N3CCOCC3)cc2)nn1', 'OVCAR-5 ovarian', 'label 0'),
  ('O=C(NN1C(=O)CSC1c1ccc(Cl)cc1)c1[nH]c2ccc(F)cc2c1-c1ccccc1 (configuration not stated)', 'OVCAR-5 ovarian', 'label 0');

Query: Tell me the assay call for NCCNc1nc2ccc(F)cc2c2c(=O)c3cc(F)ccc3sc12 please.
Reply: label 0

Query: Could you please tell me the result logged for CNCCNc1nc2ccccc2c2c(=O)c3cc(OC)ccc3sc12 in this assay?
Reply: label 0

Query: For this compound, state the assay outcome: O=C(Nc1ccc(Br)cc1F)c1cc(Cl)ccc1O
Reply: label 1

Query: Outcome logged for CCOC(=O)c1ccc(N=Cc2sc(=O)[nH]c2O)cc1 in this assay:
Reply: label 0

Query: GET /call?item= Cc1cc2c(c(C)c1Cl)C(=O)/C(=C/c1cccc([N+](=O)[O-])c1)O2 returns the recorded outcome of this test.
Reply: label 0

Query: Name the outcome recorded for Nc1ccc(-c2ccc(-c3ccccc3N)c3[nH]c4ccccc4c23)cc1 in the assay.
Reply: label 0

Query: Just curious, what result did NC(CCl)=NCCC[C@H](N)C(=O)O get here?
Reply: label 0

Query: Hi team, can someone confirm the assay call for COc1ccc(C(=O)C2CC2c2ccc(Cl)cc2)cc1 (configuration not stated) ?
Reply: label 0

Query: Kindly provide the recorded test outcome for the following compound: O=C1c2cc(I)ccc2Oc2cc([N+](=O)[O-])ccc2N1c1ccc(Cl)cc1F
Reply: label 0

Query: Please share the test call associated with CN1CCN(Cc2ccc(C(=O)Nc3cncc(C#Cc4cnc(N)c5ccccc45)c3)cc2C(F)(F)F)CC1 .
Reply: label 1

----------
Test system: SN12C renal
ASSAY_METHOD_TEXT: NCI-60 one-dose screen, 48 h (100 = growth as untreated, 0 = no growth, -100 = all killed)
EXPERIMENTAL_PARAMETERS: 10 µM unless noted
The panel holds about 83,000 compounds, 20% with a hit somewhere; the sample as a whole holds those more often.
Below is a list of entries, each paired with its recorded growth value.
A number alone suffices; assume %.

Recorded results for 5 compounds are shown here.
INSERT INTO results (compound, measurement_kind, measured_value) VALUES
  ('COc1ccc(-c2nsc3c2NC(=O)CC3c2ccc3c(c2)OCCO3)cc1 (stereo not given)', 'growth', 44.4),
  ('CCCCN1CCN(c2ccc3nc(-c4ccc5nc(-c6ccc(OC)c(OC)c6)[nH]c5c4)[nH]c3c2)CC1', 'growth', 7.75),
  ('CCOC(=O)c1sc(-c2ccc(OS(=O)(=O)c3ccc(Br)s3)c(C=O)c2)nc1C', 'growth', 4.77),
  ('CN=c1ccc2nc3ccc(N)cc3sc-2c1', 'growth', 17),
  ('Clc1ccc(COc2ccc(Nc3ncnc4onc(-c5ccccc5)c34)cc2)cc1', 'growth', 87.8);

Query: Can you look up the measured growth of O=C(/C=C/c1ccc(C(F)(F)F)cc1)c1ccc(Nc2nc(NCCO)nc(Nc3ccc(Cl)cc3)n2)cc1 for me?
Reply: 79.1

Query: For the compound shown here, CC(=S)NC(=O)C(=O)/C=C1/NC(=O)C(=O)S1 , give the reported growth.
Reply: 99.1

Query: Which growth is listed for O=C(Nc1nc2c(s1)CCc1c-2c(Br)n(Cc2ccccc2)c1Br)c1ccccc1 ?
Reply: 87.7

Query: Could you tell me which growth is on file for CCN(CC)c1cc(C)c2cc(NC(=O)c3cccc(OC)c3)ccc2n1 ?
Reply: 79.1

Query: Quick one: growth of COc1cc(NC(=O)CCSc2nc3ccccc3c(=O)n2CCc2ccccn2)cc(OC)c1OC ?
Reply: 92.8
